Assay: Octanol-water partition coefficient, log P of the compound by shake flask method
Format: physicochemical
measurement.type: logP

                         structure_notation  measurement_type  result
0  Cn1c(=O)c2c(nc(SCCCc3cccc(Cl)c3)n2C)n(C)c1=O              logP    3.76
1  Cn1c(=O)c2c(nc(SCCc3ccc(Br)cc3)n2C)n(C)c1=O              logP    2.98
2  Cc1ccc(CCSc2nc3c(c(=O)n(C)c(=O)n3C)n2C)cc1              logP    3.15
3  Cn1c(=O)c2c(nc(SCCc3cccc(C(F)(F)F)c3)n2C)n(C)c1=O              logP    3.14
4  Cn1c(=O)c2c(nc(SCCCc3ccc(Cl)cc3)n2C)n(C)c1=O              logP    3.59
5   Cn1c(=O)c2c(nc(SCCc3ccccc3)n2C)n(C)c1=O              logP    3.22
